- Test system: E. coli strain 9003
- assay-method-text: Antibiogram by diffusion technique (CA-SFM 2008); further: key: sensitive (S): strains for which the MIC of the antibiotic tested is less than or equal to the lower critical concentration c; resistant (R): strains for which the MIC of the antibiotic tested are greater than the upper critical concentration C; intermediate sensitivity (I): strains for which the MIC of the antibiotic tested and the corresponding diameter are between the two critical concentrations and the two critical diameters
- Format: cell-based
property-measured: Category

{"columns": ["molecule", "tested-system", "Category"],
 "data": [
  ["CC(=O)OCC1=C(C(=O)O)N2C(=O)[C@@H](NC(=O)Cc3cccs3)[C@H]2SC1", "E. coli strain 9003", "R"],
  ["NCC[C@H](O)C(=O)N[C@@H]1C[C@H](N)[C@@H](O[C@H]2O[C@H](CN)[C@@H](O)[C@H](O)[C@H]2O)[C@H](O)[C@H]1O[C@H]1O[C@H](CO)[C@@H](O)[C@H](N)[C@H]1O", "E. coli strain 9003", "S"],
  ["CC(C)(O/N=C(\\C(=O)N[C@@H]1C(=O)N2C(C(=O)[O-])=C(C[n+]3ccccc3)CS[C@H]12)c1csc(N)n1)C(=O)O", "E. coli strain 9003", "R"],
  ["CO/N=C(\\C(=O)N[C@@H]1C(=O)N2C(C(=O)[O-])=C(C[N+]3(C)CCCC3)CS[C@H]12)c1csc(N)n1 [Cefepime]", "E. coli strain 9003", "R"],
  ["CO/N=C(\\C(=O)N[C@@H]1C(=O)N2C(C(=O)O)=C(COC(C)=O)CS[C@H]12)c1csc(N)n1", "E. coli strain 9003", "R"]
]}

Now turn to the next molecule.
Return value of Category for input C[C@@H](O)[C@H]1C(=O)N2C(C(=O)O)=C(S[C@@H]3CN[C@H](C(=O)Nc4cccc(C(=O)O)c4)C3)[C@H](C)[C@H]12 , no commentary. S

---

Reported Diameter by item:
- Tested on: Enterococcus strain 8153
- assay-method-text: Antibiogram by diffusion technique (CA-SFM 2008)
- Type: cell-based
- Set-up: unit not given here
Provide a numeric answer; units are not to be included.

{"columns": ["structure-smiles-string", "Diameter"],
 "data": [
  ["C[C@H]1COc2c(N3CCN(C)CC3)c(F)cc3c(=O)c(C(=O)O)cn1c23", 26]
]}

Please look at NC[C@H]1O[C@H](O[C@H]2[C@H](O)[C@@H](O[C@H]3O[C@H](CO)[C@@H](O)[C@H](N)[C@H]3O)[C@H](N)C[C@@H]2N)[C@H](O)[C@@H](O)[C@@H]1O and tell me its recorded Diameter on Enterococcus strain 8153. 14

Please look at CCC[C@@H]1C[C@@H](C(=O)N[C@@H]([C@H]2O[C@H](SC)[C@H](O)[C@@H](O)[C@H]2O)[C@H](C)Cl)N(C)C1 and tell me its recorded Diameter on Enterococcus strain 8153. 0

Please look at CC1(C)S[C@@H]2[C@H](NC(=O)[C@H](N)c3ccc(O)cc3)C(=O)N2[C@H]1C(=O)O and tell me its recorded Diameter on Enterococcus strain 8153. 33

Please look at CO[C@@]1(NC(=O)Cc2cccs2)C(=O)N2C(C(=O)O)=C(COC(N)=O)CS[C@@H]21 and tell me its recorded Diameter on Enterococcus strain 8153. 25

Please look at NC[C@H]1O[C@H](O[C@H]2[C@H](O)[C@@H](O[C@H]3O[C@H](CO)[C@@H](O)[C@H](N)[C@H]3O)[C@H](N)C[C@@H]2N)[C@H](N)C[C@@H]1O and tell me its recorded Diameter on Enterococcus strain 8153. 14
